system: MCF7; test: NCI tumour cell line growth inhibition, 48 h
Active and inactive are the calls of the source. Cut-off read from the data, not from the text of the source: active = GI50 up to about 1.1 µM and inactive = higher.
Possible outcomes: YES for active, NO for inactive

{"COMPOUND": "O=C1N[C@H]2[C@H](O)[C@H](O)[C@@H](O)[C@H](O)[C@@H]2c2cc3c(c(O)c21)OCO3 [PANCRATISTATIN]", "DISCRETE LABEL": "YES"}
{"COMPOUND": "O=C(CC1(O)C(=O)Nc2c(Cl)ccc(Cl)c21)c1ccco1 (stereo not given)", "DISCRETE LABEL": "NO"}
{"COMPOUND": "COc1ccc(C=C2C(=O)NC(=S)NC2=O)c2ccccc12", "DISCRETE LABEL": "NO"}
{"COMPOUND": "CCOP(=O)(OCC)/C(=C/c1ccccc1)CC(C)=O", "DISCRETE LABEL": "NO"}
{"COMPOUND": "FC(F)(F)c1ccc2nc(Sc3ccccn3)cnc2c1", "DISCRETE LABEL": "NO"}
{"COMPOUND": "COC(=O)c1ccccc1C1CN=NC12Cc1cc(C)cc(C)c1C2=O (stereo not given)", "DISCRETE LABEL": "NO"}
{"COMPOUND": "CN(c1ccccc1Cl)S(=O)(=O)c1ccccc1", "DISCRETE LABEL": "NO"}
{"COMPOUND": "COCC1OC([P+](c2ccccc2)(c2ccccc2)c2ccccc2)CC(OC)C1OC (stereo not given)", "DISCRETE LABEL": "NO"}
{"COMPOUND": "CC(C)(CCCCC(C)(C)[N+](C)(C)C)[N+](C)(C)C", "DISCRETE LABEL": "NO"}
{"COMPOUND": "CC(C)(C)NCCC(O)c1cc(C(F)(F)F)nc2c(C(F)(F)F)cccc12 (stereo not given)", "DISCRETE LABEL": "NO"}
